Assay: Apparent permeability on Caco-2 cells
Format: in vitro ADME, Human
Details: human, Caco-2; basolateral to apical, Table 8; read-out: Caco2 Papp_BA
Collected Papp B→A at 2 h, 10 μM values appear next to each entry.
Give the number; nm/s is assumed, so skip it.

>>> number("C[C@]12CCC/C(=C\\C=C3\\CC(O)C[C@H](O)C3)C1CC=C2C1(CC#CC(O)(C(F)(F)F)C(F)(F)F)CC1 (some centres unmarked)")
60

Record request: Papp B→A at 2 h, 10 μM value, item CC(C)(O)CCCC1(C2=CCC3/C(=C/C=C4/CC(O)C[C@H](O)C4)CCC[C@]23C)CC1 (some centres unmarked) 64.6
